tested_target: T1, human DLL3 (recombinant antigen) (human, UniProt Q9NYJ7 27-492, limits assumed)
T1 construct: also called hDLL3
T1 sequence (looked up): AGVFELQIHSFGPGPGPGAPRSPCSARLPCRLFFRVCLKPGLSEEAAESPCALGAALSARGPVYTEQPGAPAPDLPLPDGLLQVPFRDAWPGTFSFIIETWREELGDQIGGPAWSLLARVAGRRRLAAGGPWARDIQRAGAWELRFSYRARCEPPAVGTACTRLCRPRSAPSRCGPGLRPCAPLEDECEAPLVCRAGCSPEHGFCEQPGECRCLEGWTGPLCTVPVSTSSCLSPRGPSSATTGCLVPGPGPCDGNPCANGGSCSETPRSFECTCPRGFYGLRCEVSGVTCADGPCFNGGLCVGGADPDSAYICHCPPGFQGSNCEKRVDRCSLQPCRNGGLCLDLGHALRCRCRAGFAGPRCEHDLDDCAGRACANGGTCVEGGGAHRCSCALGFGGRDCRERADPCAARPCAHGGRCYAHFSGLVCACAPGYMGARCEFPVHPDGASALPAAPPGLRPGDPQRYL
protocol_details: affinity to hDLL3, H435Q-Fc format; method not given
test_readout: Kd (nM)
Please respond with the number in nM and leave the unit unwritten.

Lookup result for Clone 107 VHH-Fc, H435Q-Fc format (Fc fusion, not shown: hinge and human IgG1 Fc with H435Q (EU)) QVQLVESGGGLVQAGDSLRLSCVASDRTFSSYAVGWFRQAPGKEREFVAAISWNGGRTLYTDSVTGRFTISRDNAKSTVYLQMNGLKPEDTAVYYCAARPAAPTRRLEYDYWGQGTQVTVSS ; measured Kd: 0.72
